Listed molecules paired with reported CHOLESTEROL
Species: Rattus norvegicus
Assay: DrugMatrix - Regimen: Daily Repeat
Format: toxicity, organism-based, Sprague-Dawley
Parameters: regimen Daily Repeat, gender Male, age 6-8 weeks
Conditions: in vivo, iv, 0 mg/kg, 120 h, tissue Plasma, dose level Control, time 5 day, vehicle 100 % SALINE
Record the result as a number with its unit.

// worked examples, CHOLESTEROL included
INSERT INTO assay_data (molecule, assay_result) VALUES
  ('O=c1[nH]c(=O)n([C@H]2C[C@H](O)[C@@H](CO)O2)cc1F', '63 mg/dL'),
  ('C[N+](C)(C)CCOC(=O)CCC(=O)OCC[N+](C)(C)C.[Cl-].[Cl-] [SUCCINYLCHOLINE CHLORIDE]', '67.5 mg/dL'),
  ('O=C(O)P(=O)(O)O', '66.83 mg/dL');

Summary for this molecule, `COc1cccc2c1C(=O)c1c(O)c3c(c(O)c1C2=O)C[C@@](O)(C(C)=O)C[C@@H]3O[C@H]1C[C@H](N)[C@H](O)[C@H](C)O1` : CHOLESTEROL is 64.83 mg/dL

Form: molecule = `N=C(N)c1ccc(OCCCCCOc2ccc(C(=N)N)cc2)cc1` ; CHOLESTEROL = 67.5 mg/dL

* * *

Attribute: ERYTHROCYTE COUNT
Species: Rattus norvegicus
Assay: DrugMatrix - Regimen: Daily Repeat
Assay type: toxicity, organism-based, Sprague-Dawley
Set-up: regimen Daily Repeat, gender Male, age 6-8 weeks
Conditions: in vivo, po, 0 mg/kg, 120 h, tissue Blood, route oral GAVAGE, dose level Control, time 5 day, vehicle 100 % WATER
Please respond with the number in x10E6/uL and leave the unit unwritten.

Sample answers from the record:
INSERT INTO measurements (compound, unit_label, assay_result) VALUES
  ('C#Cc1cccc(Nc2ncnc3cc(OCCOC)c(OCCOC)cc23)c1 [ERLOTINIB]', 'x10E6/uL', 6.93),
  ('CCCC(C)C1(CC)C(=O)NC(=O)NC1=O (stereo not given) [PENTOBARBITAL]', 'x10E6/uL', 5.32),
  ('CCN(CC)CCNC(=O)c1ccc(N)cc1 [PROCAINAMIDE]', 'x10E6/uL', 5.99);

ERYTHROCYTE COUNT reported for this compound O=c1[nH]c(=O)n(C2CCCO2)cc1F (stereo not given) [TEGAFUR] : 5.78

For reference, reported ERYTHROCYTE COUNT for CCN(C(C)=O)c1cccc(-c2ccnc3c(C#N)cnn23)c1 [ZALEPLON] stands at 5.84

* * *

Species on record: Rattus norvegicus
Assay: DrugMatrix - Regimen: Daily Repeat
Format: toxicity, organism-based, Sprague-Dawley
Set-up: regimen Daily Repeat, gender Male, age 6-8 weeks
Conditions: in vivo, po, 0 mg/kg, 120 h, tissue Blood, route oral GAVAGE, dose level Control, time 5 day, vehicle .5 % CMC
The entries below come with measured ABSOLUTE LYMPHOCYTE values attached.
Just the number in CELLS/uL, nothing appended.

The examples below pair each entry with its known result.
INSERT INTO results (molecule, readout_label, unit_label, assay_result) VALUES
  ('COc1cc(OC)c(C(=O)CCCN2CCCC2)c(OC)c1 [BUFLOMEDIL]', 'ABSOLUTE LYMPHOCYTE', 'CELLS/uL', 13871.67),
  ('COc1ccccc1[N+](=O)[O-] [2-NITROANISOLE]', 'ABSOLUTE LYMPHOCYTE', 'CELLS/uL', 8146.83),
  ('CCC1=C(C)CN(C(=O)NCCc2ccc(S(=O)(=O)NC(=O)N[C@H]3CC[C@H](C)CC3)cc2)C1=O [GLIMEPIRIDE]', 'ABSOLUTE LYMPHOCYTE', 'CELLS/uL', 13283.17);

Consider C[C@@H]1O[C@@H](O[C@H]2C[C@@H](O)[C@]3(CO)[C@H]4[C@H](O)C[C@]5(C)[C@@H](C6=CC(=O)OC6)CC[C@]5(O)[C@@H]4CC[C@]3(O)C2)[C@H](O)[C@H](O)[C@H]1O [OUABAIN] . Its measured ABSOLUTE LYMPHOCYTE is 9599.17

For this molecule ( `CCOc1nc2cccc(C(=O)O)c2n1Cc1ccc(-c2ccccc2-c2nnn[nH]2)cc1` ), measured ABSOLUTE LYMPHOCYTE is 11419.17

Data provenance is ChEMBL document CHEMBL3885881.
